Test system: K4 kissing-loop RNA reporter;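 note: bound reporter read as fluorescence of individual clusters on recovered sequencing chips by microscopy, with normalized cluster intensities fitted with a binding model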
protocol details: apparent KD of K4 kissing-loop reporter; higher = weaker reporter binding
test conditions: Eterna round: R107; input ligand: theophylline 20 uM
Parameter: apparent KD of K4 kissing-loop reporter. Scope: all listed entries.
reported endpoint: apparent KD of K4 kissing-loop reporter (nM)

construct sequence	reported endpoint	reading unit	reported value
AACUGUCAAGGACAACAUUACUGAGGUGAUACCAGCAUCGAAAGAUGCCCUUGGCAGCGCCAACUUGCAGUGAUGUUGCAAGUAA [BrourdMod 1 - Jieux - Exclusion - Theophylline A]	apparent KD of K4 kissing-loop reporter	nM	159
GCAGACACGCAGUGAUGUUGCGAAACGGAAGGAGCGCGUGAAAACGCAGGUAGGUCGCCGACACAUUAAUUAUAAUUUUGUUUGC [Arginine A K4 15]	apparent KD of K4 kissing-loop reporter	nM	274
CGCGCGGGUUUGAGAGGGUUUGCGCGAAGUGAGGAUAUUUAGGGAGAAAGAAGGCACUAUAAAAUAUAGUGAUGUUAUAUAAGGG [SSFMNA.I]	apparent KD of K4 kissing-loop reporter	nM	139
AACCACUCGUUACAUCACUAUCGAGUGGAACGAGGACCGGUACGGCCGCCACUCGAAUAGAUGCAGUGAUGUUGCAUCUUGGAAU [KL-SSTryp-A (BrourdMod)4 #dotplot2 strengthened]	apparent KD of K4 kissing-loop reporter	nM	156
AAAAUAACCCAGUGAUGUUGGUAUGCAGAUACCAGCGACGAAAGUCGCCCUUGGCAGCUGUGGACGUACAAAAUAAGUACGUCCU	apparent KD of K4 kissing-loop reporter	nM	1220
CAGCAUCUGAGUGGUAGCCAUUGAGAGAUGCAGGAUAUCUGGAAACAGAGAAGGGCAGUGAGUGAUGUUCACGGCUGGCUUGGUU	apparent KD of K4 kissing-loop reporter	nM	133
CCAUCGCUAUUCGAUACCAGCCAGGAGGUCUUUGGCCUCCUAUUGGAGUGAUGUUCCAUAGGCCCUUGGCAGCGAAUAGUGAUGG [Theophylline B K4 16]	apparent KD of K4 kissing-loop reporter	nM	542
GGCACUUUUGGUAGGAACCAUCUACCUCUAUAGGAUAUGCCGAAAGGCAGAAGGAUAGACCUACAGAGUGAUGUUCUGCGUGCCU	apparent KD of K4 kissing-loop reporter	nM	203
AGACUACCACACUGUCAAUAGACAGUGUACUAGGAUAUGCUGAUAAGCAGAAGGAGUGAUGUUCCUCGGUAGUCAAUAAAAUAAU [FmnAX 13 U28+C67]	apparent KD of K4 kissing-loop reporter	nM	350
CAAAACGAGUGAUGUUCGGACAACAACGUUAAGGAUAUACUUCUCUGUAGAAGGUAACAGUAUUUAUAUUUCAUCAACGAAAAUG [theeternabot_exclusion_KL_FMN_A_12]	apparent KD of K4 kissing-loop reporter	nM	248
AACUUAAUUUAUAAGCAGUGAUGUUGCUCACGAGGACCGGUACGGCCGCCACUCGAUCGGACUUAGGUCUUCAAUUAUUUCUUAA [JR_ExcTryptoA_Sub018]	apparent KD of K4 kissing-loop reporter	nM	140
CACAAUUAAUUACAGUGAUGUUGUAAUCUGCGAGGACCGGUACGGCCGCCACUCGGGCUUGUAGGGCGCCCACAUUCUUAUACUA [theeternabot_sameState_KL_Trp_A_29]	apparent KD of K4 kissing-loop reporter	nM	428

Cited source for all entries: the supplement of paper PMC9170038
